# subjectOfTest: T1, hVEGF-A (8-109) (human, UniProt P15692 214-315)
# T1 construct: residue numbers count on mature VEGF-A; dimer
# T1 sequence (looked up): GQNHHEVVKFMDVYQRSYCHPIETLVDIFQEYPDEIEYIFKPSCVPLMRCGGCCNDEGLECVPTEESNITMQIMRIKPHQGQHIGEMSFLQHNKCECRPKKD
# assaySummary: spot phage ELISA
propertyName: ELISA

                                     binder  value
0  GCQVMQPAWGCKQDSDCLAGCVCHWYQSCG (designed binder) [VEGF_CKP9.L1.8]    1.2
1  GCNIMLPFWGCGPELNCLAGCVCQYYQSCG (designed binder) [VEGF_CKP9.54.12]    2.4
2  GCTTPWPPHEIMCKQDSDCLAGCVCGPNGFCG (designed binder) [VEGF_CKP12]    3.5
3  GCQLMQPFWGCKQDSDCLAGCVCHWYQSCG (designed binder) [VEGF_CKP9.L5.18]    1.6
4  GCDIMQPLWGCKQDSDCLAGCVCHWYQSCG (designed binder) [VEGF_CKP9.L1.68]      2
5  GCNPMLPLWGCKQDSDCLAGCVCHWYQSCG (designed binder) [VEGF_CKP9.L1.78]      3
6  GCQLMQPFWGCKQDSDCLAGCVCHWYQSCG (designed binder) [VEGF_CKP9]    0.4
